Entries annotated with measured EC50
biological target: T1, recombinant human transferrin receptor 1 (human, UniProt P02786 89-760); assay: ELISA, DMPK oligo (ASO300) conjugate binding to hTfR1
T1 construct: Recombinant protein used in ELISA and SPR; also called hTfR1; huTfR1
T1 sequence (P02786 89-760 limits assumed): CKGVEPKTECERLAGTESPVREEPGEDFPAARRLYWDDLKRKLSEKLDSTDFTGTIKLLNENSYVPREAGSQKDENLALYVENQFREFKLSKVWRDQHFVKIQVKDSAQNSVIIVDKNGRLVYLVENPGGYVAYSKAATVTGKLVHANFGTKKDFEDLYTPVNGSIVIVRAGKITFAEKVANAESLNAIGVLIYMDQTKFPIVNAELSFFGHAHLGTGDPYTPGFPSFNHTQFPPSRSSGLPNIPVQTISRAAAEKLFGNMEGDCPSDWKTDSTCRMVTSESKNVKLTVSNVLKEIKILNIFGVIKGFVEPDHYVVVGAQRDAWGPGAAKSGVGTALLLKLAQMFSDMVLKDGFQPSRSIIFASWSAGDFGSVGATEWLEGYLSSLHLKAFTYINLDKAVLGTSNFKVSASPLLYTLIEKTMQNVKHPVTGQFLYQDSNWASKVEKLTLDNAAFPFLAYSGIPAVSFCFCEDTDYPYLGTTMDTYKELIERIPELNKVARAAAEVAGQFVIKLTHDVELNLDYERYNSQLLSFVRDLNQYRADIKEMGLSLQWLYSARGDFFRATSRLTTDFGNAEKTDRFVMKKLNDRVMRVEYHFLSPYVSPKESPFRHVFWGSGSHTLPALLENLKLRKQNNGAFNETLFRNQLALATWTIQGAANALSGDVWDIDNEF
Numeric only. Scale: nM

Use the examples below as a reference point.
3A4 (VH3/Vk4) Fab conjugated to DMPK-targeting oligonucleotide ASO300 (Fab, V domains shown, Fab covalently conjugated to ASO300; also called 3A4 (VH3/Vk4) conjugate) VH: EVQLVQSGSELKKPGASVKVSCTASGFNIKDDYMYWVRQPPGKGLEWIGWIDPENGDTEYASKFQDRVTVTADTSTNTAYMELSSLRSEDTAVYYCTLWLRRGLDYWGQGTLVTVSS VL: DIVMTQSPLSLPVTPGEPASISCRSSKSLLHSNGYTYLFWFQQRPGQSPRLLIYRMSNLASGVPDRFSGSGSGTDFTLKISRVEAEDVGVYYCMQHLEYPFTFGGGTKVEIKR = 2.84
5H12 (VH5-C33D/Vk4) Fab conjugated to DMPK-targeting oligonucleotide ASO300 (Fab, V domains shown, Fab covalently conjugated to ASO300; also called 5H12 (VH5-C33D/Vk4) conjugate) VH: QVQLVQSGAEVKKPGASVKVSCKASGYSFTDYDINWVRQAPGQGLEWMGWIYPGSGNTRYSERFKGRVTITRDTSASTAYMELSSLRSEDTAVYYCAREDYYPYHGMDYWGQGTLVTVSS VL: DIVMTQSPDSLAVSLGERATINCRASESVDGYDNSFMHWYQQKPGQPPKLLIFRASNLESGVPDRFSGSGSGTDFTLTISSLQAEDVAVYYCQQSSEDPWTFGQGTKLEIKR = 110
3A4 (VH3-N54S/Vk4) Fab conjugated to DMPK-targeting oligonucleotide ASO300 (Fab, V domains shown, Fab covalently conjugated to ASO300; also called 3A4 (VH3-N54S/Vk4) conjugate) VH: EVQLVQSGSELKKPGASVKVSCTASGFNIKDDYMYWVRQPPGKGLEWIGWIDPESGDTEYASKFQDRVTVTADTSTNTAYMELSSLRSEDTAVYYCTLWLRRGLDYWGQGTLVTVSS VL: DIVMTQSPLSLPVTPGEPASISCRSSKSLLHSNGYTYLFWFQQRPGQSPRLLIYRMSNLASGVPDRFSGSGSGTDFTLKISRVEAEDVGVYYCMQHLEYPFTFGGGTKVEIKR = 2.71

Turning now to a further binder:
Input line: Can you share its EC50? I mean this binder: 3M12 (VH4/Vk3) Fab conjugated to DMPK-targeting oligonucleotide ASO300 (Fab, V domains shown, Fab covalently conjugated to ASO300; also called 3M12 (VH4/Vk3) conjugate; DMPK oligo conjugate) VH: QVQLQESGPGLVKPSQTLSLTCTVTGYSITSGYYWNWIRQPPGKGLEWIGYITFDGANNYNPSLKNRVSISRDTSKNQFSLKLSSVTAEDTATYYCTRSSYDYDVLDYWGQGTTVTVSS VL: DIQMTQSPSSLSASVGDRVTITCRASQDISNFLNWYQQKPGQPVKLLIYYTSRLHSGVPSRFSGSGSGTDFTLTISSLQPEDFATYYCQQGHTLPYTFGQGTKLEIKR
Output line: 1.18
